Numbers sourced from the RNAGym collection of RNA variant scans (doi:10.1073/pnas.2313332121).

Please provide measured polymerase ribozyme fitness (log ratio) for the entries that follow.
B1: TPR t1 (parent)
chain: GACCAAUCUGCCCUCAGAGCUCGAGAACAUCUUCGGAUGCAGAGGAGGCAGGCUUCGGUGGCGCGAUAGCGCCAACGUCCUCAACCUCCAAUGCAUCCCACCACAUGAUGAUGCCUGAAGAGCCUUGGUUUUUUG

Variants of: B1
Assay: polymerase ribozyme fitness, log enrichment relative to wild type (log ratio); higher = more active; in vitro selection for triplet polymerase activity
The reply should be a number, written without any unit.

Qu. Sample G19C G42C C97U C115A A119G U129A — what was its polymerase ribozyme fitness (log ratio)?
Ans. -5.99

Qu. Look up polymerase ribozyme fitness (log ratio): C13U G39A A68C A91G C123A
Ans. -7.34

Qu. Endpoint output: polymerase ribozyme fitness (log ratio) of A18C C79G A90U G113A . Value?
Ans. -4.1

Qu. Any idea what its polymerase ribozyme fitness (log ratio) is? The variant is C56U G71U
Ans. -1.85

Qu. What value of polymerase ribozyme fitness (log ratio) has been reported for the following variant? `A84U`
Ans. -0.405

Qu. Which measured polymerase ribozyme fitness (log ratio) value corresponds to A29G G60C ?
Ans. -1.31

Qu. Name the reported polymerase ribozyme fitness (log ratio) value associated with the variant A26U C80U
Ans. -4.31

Qu. Any idea what polymerase ribozyme fitness (log ratio) was measured for G19A G48A A91G ?
Ans. -3.87

Qu. Quick one: polymerase ribozyme fitness (log ratio) for A43U G45A C53U C56G A84U ?
Ans. -2.19

Qu. Need polymerase ribozyme fitness (log ratio), item G63A C115U A119C
Ans. -5.84

Qu. Data request, read-out polymerase ribozyme fitness (log ratio), for C15A G69C
Ans. -3.57

Qu. Which polymerase ribozyme fitness (log ratio) is listed for C40U G60C G135U ?
Ans. -1.79

Qu. Given the variant C62U C85A U106G C123G , what is its reported polymerase ribozyme fitness (log ratio)?
Ans. -1.11

Qu. Given the entry U7G A46U G63C C102A C104A A111U G128C , report its measured polymerase ribozyme fitness (log ratio).
Ans. -7.59

Qu. polymerase ribozyme fitness (log ratio) for C8A G19C U59A C82A ?
Ans. -3.12

Qu. Quick one: polymerase ribozyme fitness (log ratio) of U32C C73A C85G ?
Ans. -3.02

Qu. Which polymerase ribozyme fitness (log ratio) value is on record for G71A U109C ?
Ans. -4.59

Qu. Can you look up the measured polymerase ribozyme fitness (log ratio) of A2G G19A for me?
Ans. -2.68

Qu. // query polymerase ribozyme fitness (log ratio) value for entry G47U A100U U116A G117A U132A
Ans. -5.1

Qu. I have this variant here, G10A C15A C73U , and I need its recorded polymerase ribozyme fitness (log ratio).
Ans. -2.06

Qu. Can you look up the measured polymerase ribozyme fitness (log ratio) of G44C G122A for me?
Ans. -1.4

Qu. Item G36U A50C A84U has what recorded polymerase ribozyme fitness (log ratio)?
Ans. -1.94

Qu. If you can, please state the reported polymerase ribozyme fitness (log ratio) value of C31G U33A C64A G120C .
Ans. -6.19

Qu. Given the entry C49U U96A , report its measured polymerase ribozyme fitness (log ratio).
Ans. -3.17

Qu. GET /values?readout=polymerase ribozyme fitness (log ratio)&item= C12G C53A G71U G107C U112C
Ans. -4.39

Qu. Could you tell me which polymerase ribozyme fitness (log ratio) is on file for G39A C72U U78C C99U G120A U126C ?
Ans. -2.95

Qu. Fill in the blank: the reported polymerase ribozyme fitness (log ratio) of A27G G69C A90C is ____.
Ans. -4.21

Qu. Query (variant): A43G C56U ; field requested: polymerase ribozyme fitness (log ratio)
Ans. -1.77

Qu. Reported polymerase ribozyme fitness (log ratio), variant G61A G120A U133A : ____
Ans. 0.274

Qu. Data request, read-out polymerase ribozyme fitness (log ratio), for C11U C85U
Ans. -1.93

Qu. Recorded polymerase ribozyme fitness (log ratio) of G45C C62U , please.
Ans. -1.63

Qu. # query: polymerase ribozyme fitness (log ratio) of entry C64U C82U
Ans. -2.09

Qu. Which measured polymerase ribozyme fitness (log ratio) value corresponds to C15G G63A ?
Ans. -3.35

Qu. Need polymerase ribozyme fitness (log ratio) of U55A U133A , thanks.
Ans. -0.185

Qu. Recorded polymerase ribozyme fitness (log ratio) of A29C C70U A118G , please.
Ans. -2.26

Qu. Data request, read-out polymerase ribozyme fitness (log ratio), for C102G A111C A118C U129C
Ans. -5.54

Qu. Can you look up the measured polymerase ribozyme fitness (log ratio) of C13G A66U for me?
Ans. -2.18

Qu. I have this variant here, C4A G36U C70U , and I need its recorded polymerase ribozyme fitness (log ratio).
Ans. -3.69

Qu. Which polymerase ribozyme fitness (log ratio) value is on record for G58C G71C C115A A118U ?
Ans. -1.75

Qu. // query polymerase ribozyme fitness (log ratio) value for entry G45U C123U
Ans. -0.952

Qu. Consider the variant G69U C80G and give its measured polymerase ribozyme fitness (log ratio).
Ans. -2.32

Qu. Can you share its polymerase ribozyme fitness (log ratio)? I mean this variant: C13G C82A C102A U130G
Ans. -4.93

Qu. If you can, please state the reported polymerase ribozyme fitness (log ratio) value of U59C A84G .
Ans. -1.4

Qu. What value of polymerase ribozyme fitness (log ratio) has been recorded for this entry: C94U G128U
Ans. -1.7

Qu. I am curious: what polymerase ribozyme fitness (log ratio) value has been reported for C53U U78C ?
Ans. -0.767

Qu. Quick check: polymerase ribozyme fitness (log ratio) of A29U A43G G61U G113A C123A U126A U134C ?
Ans. -3.47

Qu. # query: polymerase ribozyme fitness (log ratio) of entry G48C G60U
Ans. -2.22

Qu. Bench note: what polymerase ribozyme fitness (log ratio) did C31U G48A C73U U106G show?
Ans. -3.4

Qu. Please give the measured polymerase ribozyme fitness (log ratio) for this variant: G61C A83U G113C G120U U132A
Ans. -4.78

Qu. Which value of polymerase ribozyme fitness (log ratio) has been reported for C11U G71U G93A C104U in the records?
Ans. -1.26

Qu. Give its polymerase ribozyme fitness (log ratio) value. Item: G47U C49G C70U U87C A100C
Ans. -3.16

Qu. Consider the variant C115U G120A A121C and give its measured polymerase ribozyme fitness (log ratio).
Ans. -2.04

Qu. Can you share its polymerase ribozyme fitness (log ratio)? I mean this variant: C12U A27C
Ans. -2.1

Qu. Given G44U C72U U96A U106G G117U A119U , state its recorded polymerase ribozyme fitness (log ratio).
Ans. -6.08

Qu. What does the record list as polymerase ribozyme fitness (log ratio) for G60A A74U U92A C104U U133A ?
Ans. -2.03

Qu. Data request, read-out polymerase ribozyme fitness (log ratio), for C62G U106A A108G C115A C123A
Ans. -5.43

Qu. Any idea what its polymerase ribozyme fitness (log ratio) is? The variant is G47U U78G G135A
Ans. -1.83

Qu. Find the recorded polymerase ribozyme fitness (log ratio) belonging to U14G C73U and report it.
Ans. -1.04

Qu. Any idea what polymerase ribozyme fitness (log ratio) was measured for C8A C20A U126A ?
Ans. -3.84

Qu. Any idea what polymerase ribozyme fitness (log ratio) was measured for G57C C62U ?
Ans. -0.549

Qu. // returns reported polymerase ribozyme fitness (log ratio) for input G17A A18C C22U G35A A75U C79G A90G C99A C124G
Ans. -5.46

Qu. Requested read-out: polymerase ribozyme fitness (log ratio). Entry: G17A C62G
Ans. -5.69

Qu. Which measured polymerase ribozyme fitness (log ratio) value corresponds to A5U G71A C98U G127A G128U ?
Ans. -5.31

Qu. I have this variant here, G10A G52A G60A C79A C115A U132A , and I need its recorded polymerase ribozyme fitness (log ratio).
Ans. -1.53

Qu. Query: polymerase ribozyme fitness (log ratio); subject: A5U C31A G71A A84C C124A
Ans. -6.43

Qu. Would you mind telling me what polymerase ribozyme fitness (log ratio) value was observed for C11U G58A G71U A90G U116C ?
Ans. -2.7

Qu. Find the recorded polymerase ribozyme fitness (log ratio) belonging to A5U C49A A95G and report it.
Ans. -0.603

Qu. Which polymerase ribozyme fitness (log ratio) value is on record for G47A C123U ?
Ans. -0.261

Qu. Which polymerase ribozyme fitness (log ratio) is reported for this variant? C49G G135U
Ans. -1.27

Qu. May I ask what polymerase ribozyme fitness (log ratio) has been recorded for G19U A41U G63C A111G ?
Ans. -4.2

Qu. Would you mind telling me what polymerase ribozyme fitness (log ratio) value was observed for G69U U78G C79A U116A U129G ?
Ans. -5.04

Qu. polymerase ribozyme fitness (log ratio) lookup needed for C40U C72A , thanks.
Ans. -0.504

Qu. Please give the measured polymerase ribozyme fitness (log ratio) for this variant: C73U U129A
Ans. -1.05

Qu. Could you share which polymerase ribozyme fitness (log ratio) value was measured for C28A G120C ?
Ans. -2.79

Qu. Find the recorded polymerase ribozyme fitness (log ratio) belonging to C15A C22A U96A C124U and report it.
Ans. -5.05

Qu. polymerase ribozyme fitness (log ratio) for A37U C86A ?
Ans. -0.797

Qu. Which measured polymerase ribozyme fitness (log ratio) value corresponds to A2G C11G G61A U129A G135U ?
Ans. -2.91

Qu. Find the recorded polymerase ribozyme fitness (log ratio) belonging to G58C U129G and report it.
Ans. -0.485

Qu. Endpoint output: polymerase ribozyme fitness (log ratio) of G48A U132A . Value?
Ans. -0.715

Qu. # query: polymerase ribozyme fitness (log ratio) of entry A46U C64U C99U
Ans. -4.36

Qu. State the recorded polymerase ribozyme fitness (log ratio) for this entry: G42C G44U C64G G113U
Ans. -5.99

Qu. Recorded polymerase ribozyme fitness (log ratio) of C13A U32C A100C , please.
Ans. -2.75

Qu. Given C11G A24G C49G U59G , state its recorded polymerase ribozyme fitness (log ratio).
Ans. -2.66

Qu. Give its polymerase ribozyme fitness (log ratio) value. Item: G17C U54G C124U
Ans. -2.64

Qu. Any idea what its polymerase ribozyme fitness (log ratio) is? The variant is G69A G120C
Ans. -0.596

Qu. Given the variant A2U C11G G120A U132A , what is its reported polymerase ribozyme fitness (log ratio)?
Ans. 0.742

Qu. // query polymerase ribozyme fitness (log ratio) value for entry U32C G71C C79G U81C G113A
Ans. -3.36

Qu. Query (variant): C28U G60U ; field requested: polymerase ribozyme fitness (log ratio)
Ans. -1.24

Qu. Form field: reported polymerase ribozyme fitness (log ratio) of A18G G42A C72G G113A U132A
Ans. -2.54

Qu. Look up polymerase ribozyme fitness (log ratio): C62U A100C U112C
Ans. -1.92

Qu. Requested field: polymerase ribozyme fitness (log ratio). Item: C73G A119U U132C
Ans. -1.94
